- Test system: rat EP1 receptor (Rattus norvegicus)
- Sequence (P70597 whole entry): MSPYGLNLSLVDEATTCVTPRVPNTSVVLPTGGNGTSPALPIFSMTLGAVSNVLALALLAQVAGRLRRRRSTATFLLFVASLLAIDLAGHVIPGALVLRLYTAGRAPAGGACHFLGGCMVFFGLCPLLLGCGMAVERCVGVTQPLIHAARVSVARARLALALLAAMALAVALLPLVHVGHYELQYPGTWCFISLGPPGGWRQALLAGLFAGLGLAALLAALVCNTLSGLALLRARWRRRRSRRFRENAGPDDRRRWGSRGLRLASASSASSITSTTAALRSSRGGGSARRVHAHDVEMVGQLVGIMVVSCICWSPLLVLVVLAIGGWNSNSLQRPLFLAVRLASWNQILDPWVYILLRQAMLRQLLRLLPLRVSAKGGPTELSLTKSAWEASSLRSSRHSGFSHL
- Assay name: Test for confirmation of EP1 receptor antagonism (inhibition of PGE2-induced increase in intracellular calcium concentration)
- Condition details: rat EP1 receptor-expressing COS-1 cells; prostaglandin E2 10 nM; fluorescent calcium indicator, FDSS 7000
pIC50: −log10 of the molar value.
Experimental endpoint: pIC50

Solved entries (count: 8):
| Compound | pIC50 |
| --- | --- |
| COc1ccc2c(Cc3cccc(-c4nnn[nH]4)n3)c(C3CCCCC3)[nH]c2c1 [Example 17-7] | 7.52 |
| CC1(c2[nH]c3cc(C4CC4)ccc3c2Cc2cccc(-c3nnn[nH]3)n2)CC1 [Example 17-13] | 7.55 |
| COc1ccc2c(Cc3cccc(-c4noc(=S)[nH]4)n3)c(-c3ccccc3)[nH]c2c1 [Example 9] | 7.30 |
| COc1cc2[nH]c(-c3ccccc3)c(Cc3cccc(C(=O)NS(=O)(=O)c4ccccc4)n3)c2cc1F [Example 18-11] | 7.57 |
| COc1cc2[nH]c(C(C)C)c(Cc3cccc(-c4nnn[nH]4)n3)c2cc1Cl [Example 17-4] | 7.57 |
| COc1ccc2c(Cc3cccc(C(=O)NS(C)(=O)=O)n3)c(-c3ccccc3)[nH]c2c1 [Example 2-1] | 7.57 |
| COc1cc2[nH]c(-c3ccccc3)c(Cc3cccc(-c4nnn[nH]4)n3)c2cc1F [Example 5-8] | 7.92 |
| Cc1cc2[nH]c(-c3ccccc3)c(Cc3cccc(-c4noc(=O)[nH]4)n3)c2cc1C [Example 12-7] | 7.55 |

P. COc1ccc2c(Cc3cccc(C(=O)NS(C)(=O)=O)n3)c(-c3csc(C)c3)[nH]c2c1 [Example 3-20]
Q. Cc1ccc2c(Cc3cccc(C(=O)NS(=O)(=O)C(C)C)n3)c(-c3ccsc3)[nH]c2c1 [Example 18-10]
R. COc1ccc2c(Cc3cccc(-c4nnn[nH]4)n3)c(-c3cccnc3)[nH]c2c1 [Example 5-10]
S. Cc1cc2[nH]c(-c3ccccc3)c(Cc3cccc(C(=O)NS(C)(=O)=O)n3)c2cc1C [Example 3-30]
[Q] Could you please order the items by pIC50, going from the lowest number to the highest? Put the labels in the requested order and write them down.
[A] P, S, Q, R
(P: 7.17, S: 7.37, Q: 7.59, R: 7.89)
